Biological target: CCL11_HUMAN (Homo sapiens, UniProt P51671)
Sequence (P51671 24-97): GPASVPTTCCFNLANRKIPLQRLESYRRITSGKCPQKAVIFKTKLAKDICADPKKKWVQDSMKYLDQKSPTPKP
Experiment: Biolayer interferometry (BLI) binding
# note: boundary value 8 nM maps to false; Kd below it maps to true

MOLECULE	GROUP
P974_AMBCA: tick CKBP, Amblyomma cajennense; ACA-01 stated identical (protein, Amblyomma cajennense, tick CKBP, Amblyomma cajennense; ACA-01 stated identical) ENTQQEEQDYDYGTDTCPFPVLANKTNKAKFVGCHQKCNGGDQKLTDGTACYVVERKVWDRMTPMLWYECPLGECKNGVCEDLRKKEDCRKGNGEEK	false
P1183_AMBTR: tick CKBP, Amblyomma triste (protein, Amblyomma triste) EAPKDDFEYDGGCPFVVLDNGTHVKPAGCSHLCNGAPETLDNIECYNVTEEVAKRMTPGIPYACWLGWCSKGECKRDNRTEVCYRGSEEE	false
P546_AMBCA: tick CKBP, Amblyomma cajennense (protein, Amblyomma cajennense) ENTQQEEEDYDYGTDTCPFPVLANKTNKAKFVGCHQKCNGGDQKLTDGTACYVVERKVWDRMTPMLWYSCPLGECKNGVCEDLRKKEECRKGNGEEK	false

Q: Input P983_AMBPA: tick CKBP; named P983_AMBCA in Table 1 (protein, Amblyomma cajennense) EDTGTEDDFDYGNTGCPFPVLGNYKSNMTKPVGCKNKCGSGYEVLNDTTPCYVIDQKVFNNMVPLRQYSKCPLGFCENGECKPNDQAEDCYKGREEQK ; condition: Kd strictly below 8 nM. Does it hold?
Result: false

Q: Input P1181_AMBMA: tick CKBP, Amblyomma maculatum (protein, listed as Amblyomma maculatum) EEREDDNDYGGGCPFVVLGNGTHAKPAGCSHLCNGAPETLDNIECYNVTEEVAKRMTPDIPYTCWLGWCSKGECKRDNRTEVCYRGSERE ; condition: Kd strictly below 8 nM. Does it hold?
Result: false

Q: Input P467_RHIPU: tick CKBP (evasin), Rhipicephalus pulchellus; RPU-01 stated identical (protein, listed as Rhipicephalus pulchellus) AEKSLDSDSSGEDYELWTQGCPFLVAENRTGFGTTVSCQHNCNGAIEKVPEGEPCYTIGEDGLGRMKLNLPYNCSLGECSGGVCVPNGRSDVCFKRTWEENNKAMA ; condition: Kd strictly below 8 nM. Does it hold?
Result: true

Q: Input P1243_AMBAM: tick CKBP, Amblyomma americanum; AAM-02 stated identical (protein, listed as Amblyomma americanum) RNHTEDNSTEYYDYEEARCACPARHLNNTNGTVLKLLGCHYFCNGTLCTAPDGYPCYNLTAQQVRTLTTYPNTSCAVGVCMKGTCVKNGTMEQCFKTP ; condition: Kd strictly below 8 nM. Does it hold?
Result: true
